The reported measurements were obtained from PubChem BioAssay (NCATS).

- test_details: qHTS Assay for Identification of Small Molecule Agonists for Hypoxia Response Element Signaling Pathway (AID 914); also: % of control where 0% means no effect
- condition_notes: ME-180 (cervical carcinoma) HRE-bla reporter, beta-lactamase ratio, CoCl2, 17 h; stronger effect = higher value
Results filed as inconclusive are left out.
assay_readout: activation (%)
Report as a plain number; the unit % is understood.

Example entries and their recorded answers appear below.
Query block: Identify the reported activation for the following entry. `COc1ccc(COC(=O)N/N=C2/C[C@@H](O)[C@@H](O)[C@@H]3[C@@H]4C(=O)N(Cc5ccc6c(c5)OCO6)C(=O)[C@H]4CC[C@H]23)cc1`
Result block: -9.34

Query block: Name the recorded activation of the item `COC(=O)C(C(=O)OC)[C@@H]1CCCC(=O)C1` in your answer.
Result block: -2.41

Others:
Query block: # return recorded activation for input `O=C1CCC[C@@H](C(C(=O)OCc2ccccc2)C(=O)OCc2ccccc2)C1`
Result block: -22.4

Query block: Read the entry `CC(C)CO/N=C1/C[C@@H](O)[C@@H](O)[C@@H]2[C@@H]3C(=O)N(C4CCCCC4)C(=O)[C@H]3CC[C@H]12` and write its reported activation.
Result block: -3.43

---

- experimental_system: Retinoic acid receptor RXR-alpha (Homo sapiens)
- test_details: qHTS assay for small molecule antagonists of retinoid X receptor alpha signaling (AID 588546); also: potency is read from the fitted curve at half-maximal effect
- condition_notes: HEK293T RXRa-UAS-bla, beta-lactamase ratio, antagonist mode
Records with an inconclusive call do not appear. The source made the active and inactive calls. Calls come from the whole dose curve; as a rule, active = well fitted inhibition curve with a large enough effect in the signal ratio, with a control signal flat (not every such curve was filed as active); inconclusive = small, poorly fitted or top-dose-only effect, or effect the other way, or a change in a side signal; inactive = no such curve, though single readings can be large or run the other way; the % refers to the signal ratio.
Parameter Potency: see the listing below.

The examples below pair each entry with its known result.
Query block: Look up Potency of `CCCCCCCCCC[N+](C)(C)Cc1ccccc1` and report it.
Result block: 35.5 µM (active)

Query block: Indicate its recorded Potency; the compound in question is `O=[N+]([O-])c1ccc(O)cc1C(F)(F)F`
Result block: 7.94 µM (active)

Further cases:
Query block: // Input: `O=c1[nH]sc2ccccc12` . Output its Potency only.
Result block: 20 µM (active)

Query block: Write down Potency measured for item `CCCCCCCCCCCC[N+](C)(C)C`
Result block: 17.8 µM (active)

---

Here, each record is paired with measured max response data.
- test_details: qHTS assay for small molecule agonists of retinoid X receptor alpha signaling (AID 588544)
- condition_notes: HEK293T RXRa-UAS-bla, beta-lactamase reporter, 18 h; 530 nm emission
Records with an inconclusive call do not appear.
Number only, in %; omit the unit.

Before answering, review these 5 worked examples.
Query block: Quick one: give measured max response for CC(=O)/C=C/C1C(C)=CCCC1(C)C (stereo not drawn)
Result block: 0.774

Query block: Give the reported value of max response for this record: `CC1(C)CC(OC(=O)CCCCCCCCC(=O)OC2CC(C)(C)NC(C)(C)C2)CC(C)(C)N1`
Result block: -2.95

Query block: Please report max response for the following molecule: `CC(C)CCCCOC(=O)c1ccccc1C(=O)OCCCCC(C)C`
Result block: 6.42

Query block: State, in one line, measured max response of `CC/C=C/CCCCCCCCCCOC(C)=O`
Result block: -22.5

Query block: Using the record for `Nc1c(N=Nc2ccc(S(=O)(=O)CCOS(=O)(=O)O)cc2)c(S(=O)(=O)O)cc2cc(S(=O)(=O)O)c(N=Nc3ccc(S(=O)(=O)CCOS(=O)(=O)O)cc3)c(O)c12` , state its measured max response.
Result block: -7.65

Next:
Query block: Annotate the molecule CN=C(N)NCC1CCOC1 (stereo not drawn) with its measured max response.
Result block: -7.78

Query block: Check the records and state max response for `OCCOCCOCCOCCOCCO`
Result block: 5.49

Query block: State its max response: `COc1cc(Cl)c(OC)cc1N`
Result block: -3.24

Query block: Item `CCCCCCCCCCCCCCO` : provide max response
Result block: -4.48

Query block: Given `C[C@]12CCC(=O)C=C1CC[C@@H]1[C@@H]2[C@@H](O)C[C@]2(C=O)[C@@H](C(=O)CO)CC[C@@H]12` , respond with its max response.
Result block: 19.7

Query block: Report max response for `CCCCCCCCCCCCCCCC`
Result block: 0.581

Query block: Hello, please tell me recorded max response for this one: CC(C)CC(C)(O)C#CC(C)(O)CC(C)C (stereo not drawn)
Result block: 10.7

Query block: Consider the molecule `CC1(C)C(=O)NC(=O)N1CO` . State its measured max response.
Result block: -10.3

Query block: Specify max response for C[N+](C)(C)CC(O)CCl (stereo not drawn) and stop.
Result block: -3.49

Query block: Report max response, nothing else, for this molecule: `CCCCN(CCCC)CCCCCCN(CCCC)CCCC`
Result block: -14.8

---

- experimental_system: Vitamin D3 receptor (Homo sapiens) (UniProt P11473)
- Sequence (P11473 whole entry, looked up): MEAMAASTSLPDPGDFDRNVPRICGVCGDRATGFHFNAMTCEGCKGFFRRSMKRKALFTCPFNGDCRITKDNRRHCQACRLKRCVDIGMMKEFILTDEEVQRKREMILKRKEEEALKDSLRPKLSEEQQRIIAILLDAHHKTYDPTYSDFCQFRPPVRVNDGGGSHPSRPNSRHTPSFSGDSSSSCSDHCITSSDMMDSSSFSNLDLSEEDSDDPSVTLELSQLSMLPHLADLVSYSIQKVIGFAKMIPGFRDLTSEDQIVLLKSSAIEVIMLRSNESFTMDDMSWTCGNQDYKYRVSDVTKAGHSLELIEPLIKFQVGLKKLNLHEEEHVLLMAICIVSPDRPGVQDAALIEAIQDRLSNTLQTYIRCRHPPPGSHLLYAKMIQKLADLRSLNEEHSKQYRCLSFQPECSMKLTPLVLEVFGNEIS
- test_details: qHTS assay for small molecule agonists of vitamin D receptor signaling (AID 588543);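 also: 0% = DMSO basal and 100% = reference agonist control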
- condition_notes: HEK293T VDR-UAS-bla, beta-lactamase ratio, 16 h; series mostly up to 76.8 µM
Inconclusive results are not listed. Calls of active or inactive are those of the source. The call rests on the fitted dose curve.
assay_readout: outcome

As a guide, the following entries are already answered.
Query block: Name the recorded outcome of the compound listed here: `CC(=O)N(CCN(C(C)=O)C(C)=O)C(C)=O`
Result block: inactive

Query block: Please give the documented outcome of `N#CSCSc1nc2ccccc2s1`
Result block: inactive

Query block: Write down outcome measured for item `O=C(O)C(Oc1ccc(Cl)cc1)Oc1ccc(Cl)cc1`
Result block: inactive

Query block: Write down outcome measured for item `CC1(C)C(=O)N(Br)C(=O)N1Cl`
Result block: inactive

Continuing:
Query block: Write down outcome measured for item `CCCCCCCCCC(C)=O`
Result block: inactive

Query block: Quick one: give measured outcome for `C/C=C/C=C/CCCCCCCO`
Result block: inactive

Query block: Query outcome for `O=C(O)CN(CCCN(CC(=O)O)CC(=O)O)CC(=O)O`
Result block: inactive

---

- experimental_system: Cytochrome P450 3A4 (Homo sapiens) (UniProt P08684)
- Sequence (P08684 whole entry, looked up): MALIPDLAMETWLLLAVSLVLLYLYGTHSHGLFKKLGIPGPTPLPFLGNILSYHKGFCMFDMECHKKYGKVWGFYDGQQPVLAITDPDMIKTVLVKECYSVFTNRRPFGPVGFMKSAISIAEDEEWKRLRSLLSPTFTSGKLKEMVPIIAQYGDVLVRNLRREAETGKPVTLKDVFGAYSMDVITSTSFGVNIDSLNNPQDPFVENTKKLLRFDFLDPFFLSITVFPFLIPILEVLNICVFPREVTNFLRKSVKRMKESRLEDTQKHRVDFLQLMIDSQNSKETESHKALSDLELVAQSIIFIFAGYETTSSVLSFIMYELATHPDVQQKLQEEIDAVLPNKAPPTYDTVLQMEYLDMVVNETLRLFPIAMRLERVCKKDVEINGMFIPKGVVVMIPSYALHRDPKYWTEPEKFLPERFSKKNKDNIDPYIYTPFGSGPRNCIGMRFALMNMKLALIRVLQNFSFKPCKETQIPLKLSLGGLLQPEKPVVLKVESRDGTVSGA
- test_details: qHTS Assay for Inhibitors and Substrates of Cytochrome P450 3A4 (AID 884); also: % is scaled to controls: 0 for no effect and ±100 for the full control effect; nearly all actives have a fitted effect of over 50% in size
- condition_notes: recombinant CYP3A4, Luciferin-PPXE luminescence; series mostly up to 57.1 µM
- Experimental: NIH Molecular Libraries Screening Centers Network [MLSCN] NIH Chemical Genomics Center [NCGC] The P450 gene superfamily is involved in the metabolism and clearance of xenobiotics. […] The luciferin is then measured by luminescence after the addition of a luciferase detection reagent. […] Inhibitors and some substrates limit the production of luciferin, and decrease measured luminescence. […]
Records with an inconclusive call do not appear. Activity calls are given as the source filed them. Calls follow the shape of the dose curve; as a rule, active = well fitted inhibition curve with a large enough effect; inconclusive = small, poorly fitted or top-dose-only effect; inactive = no such curve, though single readings can be large or run the other way.
The entries below come with measured activity change, negative = inhibition values attached.

Recorded results for 5 compounds are shown here.
Query block: Output activity change, negative = inhibition of COC(=O)NC(c1cccc(C)c1)[C@]1(C(C)=O)CCCC1=O (stereo not given in full)
Result block: -27.8% [at 11.4 µM] (inactive)

Query block: For COC(=O)NC(c1cccc(F)c1)[C@]1(C(C)=O)CCCC1=O (stereo not given in full) , write its activity change, negative = inhibition.
Result block: -13.9% [at 11.4 µM] (inactive)

Query block: Please give the documented activity change, negative = inhibition of CC1CCC2C(=O)N3C(CCC(C)[C@@H]3c3ccc(-c4ccco4)cc3)C(=O)N2C1c1cccc(N2CCCC2=O)c1 (stereo not given in full)
Result block: 13.4% [at 11.4 µM] (inactive)

Query block: State its activity change, negative = inhibition for this compound: COC(=O)C/C=C/C(C)C(OC)c1ccccc1Br (stereo not given)
Result block: -5.95% [at 11.4 µM] (inactive)

Query block: Give the reported value of activity change, negative = inhibition for this record: CC1CCC(C(=O)O)NC1c1cccc(N2CCOCC2)c1 (stereo not given)
Result block: -10.3% [at 11.4 µM] (inactive)

Next:
Query block: # return recorded activity change, negative = inhibition for entry CC12C=C(/C=C/CCc3ccco3)C(C)(C1)C(CCc1ccco1)CC2=O (stereo not given)
Result block: -9.62% [at 11.4 µM] (inactive)

Query block: Hello, please tell me recorded activity change, negative = inhibition for this one: COC(=O)NC(/C(C(=O)OC)=C(\C)NCc1ccccc1)c1cccc(F)c1 (stereo not given)
Result block: -19.8% [at 11.4 µM] (inactive)

Query block: Indicate the recorded activity change, negative = inhibition value for this compound: CC(=O)OCC1OC(c2ccc(C(C)=O)cc2)C=CC1OC(C)=O (stereo not given)
Result block: -20.5% [at 11.4 µM] (inactive)

Query block: Give the value of activity change, negative = inhibition reported for the following: OCC1OC(C#Cc2ccccc2)C=CC1OCc1ccccc1 (stereo not given)
Result block: -24.2% [at 11.4 µM] (inactive)

Query block: Supply recorded activity change, negative = inhibition for CC(=O)c1ccc(C2C=CC(Oc3ccc(-c4ccccc4)cc3)C(CO)O2)cc1 (stereo not given) here.
Result block: 0.0168% [at 11.4 µM] (inactive)
